# testSystem: Gamma-aminobutyric acid receptor subunit alpha-6 (Homo sapiens)
# Sequence (Q16445 whole entry): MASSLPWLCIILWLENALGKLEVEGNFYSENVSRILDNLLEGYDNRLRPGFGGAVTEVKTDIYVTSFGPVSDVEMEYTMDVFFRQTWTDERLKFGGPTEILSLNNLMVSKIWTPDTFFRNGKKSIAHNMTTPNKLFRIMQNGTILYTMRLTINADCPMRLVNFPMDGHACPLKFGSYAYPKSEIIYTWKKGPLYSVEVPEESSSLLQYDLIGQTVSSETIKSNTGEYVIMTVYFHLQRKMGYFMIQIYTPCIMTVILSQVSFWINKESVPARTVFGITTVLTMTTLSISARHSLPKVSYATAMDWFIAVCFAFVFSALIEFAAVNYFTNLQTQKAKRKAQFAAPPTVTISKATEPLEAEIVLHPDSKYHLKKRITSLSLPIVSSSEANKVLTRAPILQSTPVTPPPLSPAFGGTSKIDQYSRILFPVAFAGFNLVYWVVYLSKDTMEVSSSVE
pKi: −log10 of the molar value.
Rule: Yes for pKi not less than 7, No for anything less.

CC(C)(C)OC(=O)c1ncn2c1C1CCCN1C(=O)c1c(Br)cccc1-2 (configuration not stated); Yes

Task item: Identify whether the reported pKi of the following compound is 7 or greater: `COC(=O)c1cc2c(cn1)[nH]c1ccccc12`
Reply: No

Task item: // inclusive: pKi at least 7? input: `COc1ccc(-n2[nH]c3c(cnc4ccccc43)c2=O)cc1`
Reply: Yes

Task item: Hi team, for `O=c1c2cnc3ccccc3c2[nH]n1-c1ccc(Cl)cc1` , is the recorded pKi at or above 7?
Reply: No

Task item: Would you say `CNC(=O)c1cc2c(cn1)[nH]c1ccccc12` shows pKi at minimum 7?
Reply: No

Task item: Is it the case that `CCOC(=O)c1ncn2c1CN(C)C(=O)c1cc(N=[N+]=[N-])ccc1-2` has pKi reaching or exceeding 7?
Reply: Yes

====

Test system Gamma-aminobutyric acid receptor subunit alpha-4 (Homo sapiens), pKi listed for each of the compounds.
pKi here is simply -log10 of the concentration when that concentration is written in mol/L.

Task item: Give Gamma-aminobutyric acid receptor subunit alpha-4 (Homo sapiens) pKi for the following compound: CCc1c(C(=O)OC)ncc2[nH]c3cc(OC)c(OC)cc3c12 [NSC_104999]
Reply: 7.85

====

Observed log10(Ki) for Gamma-aminobutyric acid receptor subunit alpha-4 (Homo sapiens), reported per entry below.
Annotation: log10 of Ki, µM basis.

Use these answered entries as a reference point.
CNC(=O)c1cc2c(cn1)[nH]c1ccccc12; -0.52
CC(C)(C)OC(=O)c1ncn2c1C1CCCN1C(=O)c1c(Br)cccc1-2 (stereo not given); -1.27
COC(=O)c1cc2c(cn1)[nH]c1ccccc12; -0.51

Task item: Provide log10(Ki) value for the following compound: `COc1ccc(-n2[nH]c3c(cnc4ccccc43)c2=O)cc1`
Reply: -2.17

Task item: Determine from records and report log10(Ki) for `O=c1c2cnc3ccccc3c2[nH]n1-c1ccc(Cl)cc1`
Reply: -1.45
